Data origin: patent US20220380459A1

- target: T1, cyno CD33 extracellular domain (Cynomolgus/Rhesus (cyno))
- T1 construct: soluble monomeric ECD; also called cyno CD33 ECD
- method summary: SPR, Fab captured, 37C;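 note: surface plasmon resonance with Fabs captured on anti-Fab surface, soluble monomeric CD33 as analyte at several concentrations, double-referenced 1:1 model fit, KD as koff/kon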
reported metric: kon (M⁻¹ s⁻¹)
Give the quantity in M⁻¹ s⁻¹, number only.

Give a short answer stating reported kon for ADI-11807 Fab (Fab, V domains shown, Fab fragment; also called Ab5; I07) VH: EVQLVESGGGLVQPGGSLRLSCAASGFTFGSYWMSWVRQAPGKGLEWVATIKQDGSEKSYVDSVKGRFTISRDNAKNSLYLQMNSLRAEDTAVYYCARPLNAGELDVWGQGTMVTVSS VL: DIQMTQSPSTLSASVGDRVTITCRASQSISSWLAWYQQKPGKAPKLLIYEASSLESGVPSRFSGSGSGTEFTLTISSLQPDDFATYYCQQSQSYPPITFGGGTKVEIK .
998000

Give a short answer stating reported kon for ADI-10159 Fab (Fab, V domains shown, Fab fragment; also called Ab1; G59) VH: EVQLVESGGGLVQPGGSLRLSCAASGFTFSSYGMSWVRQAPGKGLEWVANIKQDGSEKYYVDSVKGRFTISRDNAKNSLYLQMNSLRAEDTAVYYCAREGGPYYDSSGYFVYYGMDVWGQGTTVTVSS VL: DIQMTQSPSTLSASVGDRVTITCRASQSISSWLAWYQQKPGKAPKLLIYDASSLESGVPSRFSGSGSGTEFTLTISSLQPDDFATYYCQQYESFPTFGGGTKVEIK .
528000

Give a short answer stating reported kon for ADI-11835 Fab (Fab, V domains shown, Fab fragment; also called Ab10; I35) VH: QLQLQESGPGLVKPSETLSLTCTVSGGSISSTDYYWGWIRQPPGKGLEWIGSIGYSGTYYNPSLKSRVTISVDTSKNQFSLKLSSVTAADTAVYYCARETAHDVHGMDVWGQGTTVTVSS VL: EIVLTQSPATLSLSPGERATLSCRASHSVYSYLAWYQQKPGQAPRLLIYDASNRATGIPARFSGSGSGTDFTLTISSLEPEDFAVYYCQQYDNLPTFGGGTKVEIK .
2.76e+06

Give a short answer stating reported kon for ADI-11830 Fab (Fab, V domains shown, Fab fragment; also called Ab9) VH: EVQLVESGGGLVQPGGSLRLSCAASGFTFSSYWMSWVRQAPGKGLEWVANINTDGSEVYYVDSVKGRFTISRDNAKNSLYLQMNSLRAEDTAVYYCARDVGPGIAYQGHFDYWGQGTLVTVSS VL: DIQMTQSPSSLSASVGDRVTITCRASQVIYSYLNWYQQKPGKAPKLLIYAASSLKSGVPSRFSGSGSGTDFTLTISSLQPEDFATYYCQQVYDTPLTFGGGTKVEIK .
1.34e+06

Give a short answer stating reported kon for ADI-11776 Fab (Fab, V domains shown, Fab fragment; also called Ab3; H76) VH: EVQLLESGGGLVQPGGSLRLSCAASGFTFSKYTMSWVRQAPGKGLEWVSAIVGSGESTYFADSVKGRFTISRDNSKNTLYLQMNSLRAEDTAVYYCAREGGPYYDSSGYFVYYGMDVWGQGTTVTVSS VL: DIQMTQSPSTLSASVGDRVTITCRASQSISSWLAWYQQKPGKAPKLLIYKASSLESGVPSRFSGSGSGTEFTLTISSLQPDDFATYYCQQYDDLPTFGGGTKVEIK .
2.62e+06

Give a short answer stating reported kon for ADI-10177 Fab (Fab, V domains shown, Fab fragment; also called Ab2) VH: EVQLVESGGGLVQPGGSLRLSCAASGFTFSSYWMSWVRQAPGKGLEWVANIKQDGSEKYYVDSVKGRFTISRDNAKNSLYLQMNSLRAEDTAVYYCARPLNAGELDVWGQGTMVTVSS VL: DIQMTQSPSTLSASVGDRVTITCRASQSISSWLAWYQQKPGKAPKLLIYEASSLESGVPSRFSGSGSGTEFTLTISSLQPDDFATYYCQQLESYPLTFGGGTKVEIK .
353000

Give a short answer stating reported kon for ADI-11809 Fab (Fab, V domains shown, Fab fragment; also called Ab6) VH: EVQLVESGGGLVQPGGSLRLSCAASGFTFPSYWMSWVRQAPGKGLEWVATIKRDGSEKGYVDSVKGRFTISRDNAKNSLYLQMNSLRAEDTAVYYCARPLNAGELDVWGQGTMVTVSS VL: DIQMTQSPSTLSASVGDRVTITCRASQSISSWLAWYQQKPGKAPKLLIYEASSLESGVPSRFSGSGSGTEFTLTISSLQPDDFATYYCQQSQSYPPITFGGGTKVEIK .
1.06e+06
